System: SK-OV-3 ovarian
Assay: NCI tumour cell line growth inhibition, 48 h
I'd be grateful if you could share measured GI50 for these entries.

**Q:** // lookup GI50 for `O=C(c1cc(-c2cc3c(cc2C(=O)N2Cc4ccccc4C[C@H]2CN2CCOCC2)OCO3)n2c1CCCC2)N(c1ccccc1)c1ccc(O)cc1`
**A:** 12.7 µM

**Q:** Please answer likewise for `Cl.Fc1c[c-]c(-c2ccccn2)c(F)c1.[Pt].c1ccc([PH+](CC[PH+](c2ccccc2)c2ccccc2)c2ccccc2)cc1`
**A:** 0.184 µM

**Q:** Please answer likewise for `Cc1cc(-c2nc3ccc(O)cc3s2)ccc1N`
**A:** 36.9 µM

**Q:** Please answer likewise for `O=[N+]([O-])c1cc(Br)cc2c1[nH]c1ccc(Br)cc12`
**A:** 3.59 µM

**Q:** Please answer likewise for `CN(/N=N/c1nc(OCc2ccccc2)c2[nH]cnc2n1)C(=O)N(C)/N=N/c1nc(OCc2ccccc2)c2[nH]cnc2n1`
**A:** 42.1 µM

**Q:** Please answer likewise for N#CSCC1CC(O)(c2ccccc2)C(c2ccccc2)C(c2ccc(F)cc2)O1 (centres undefined)
**A:** 28.6 µM

**Q:** Please answer likewise for `COc1cc2cnc3c(c2cc1OC)Cc1cc2c(cc1-3)OCO2`
**A:** 0.0203 µM

**Q:** Please answer likewise for `COc1ccc(C(=O)c2cc(OC)c(OC)c(OC)c2)cc1O`
**A:** 0.395 µM

**Q:** Please answer likewise for `Cc1nn2c(/C=C3/C(=O)Nc4ccc(Cl)cc43)c(-c3ccccc3)nc2s1`
**A:** 2.25 µM
